Attribute: CC50 at 48 h
test: In vitro cytotoxicity, MTT assay
Assay type: cell-based
condition: African green monkey

| compound | measurement_qualifier | CC50 at 48 h, µM |
| --- | --- | --- |
| Oc1cc(O)cc(CCc2ccc(O)cc2O)c1 [Compound 9, 2,4,3′,5′-tetrahydroxybibenzyl] | = | 16.7 |
| CCC(C(C)C)C(C)CC(C)C1CCC2C3C=CC4CC(OC5OC(CO)C(O)C(O)C5O)CCC4(C)C3CCC12C (centres unmarked) | > | 80 |

* * *

Tested on: chloroquine (CQ)-resistant P. falciparum (K1 strain)
test: Antimalarial activity, 3H-hypoxanthine uptake inhibition, K1 strain
Format: cell-based, Plasmodium falciparum
condition: Plasmodium falciparum, K1, pure compounds; P. falciparum K1 strain; mean ± S.D. of three determinations; read-out: IC50 K1

| compound | tgt | IC50 |
| --- | --- | --- |
| O=c1c(O)c(-c2ccc(O)cc2)oc2cc(O)cc(O)c12 [Compound 7, kaempferol] | chloroquine (CQ)-resistant P. falciparum (K1 strain) | 62.5 µM |
| Oc1cc(O)cc(CCc2ccc(O)cc2O)c1 [Compound 9, 2,4,3′,5′-tetrahydroxybibenzyl] | chloroquine (CQ)-resistant P. falciparum (K1 strain) | 40 µM |
| NC(=O)NC1NC(=O)NC1=O (stereo not shown) [Compound 8, allantoin] | chloroquine (CQ)-resistant P. falciparum (K1 strain) | > 80 µM |
| O=c1c(O[C@@H]2O[C@H](CO)[C@@H](O)[C@H](O)[C@H]2O)c(-c2ccc(O)c(O)c2)oc2cc(O)cc(O)c12 [Compound 13, quercetin-3-O-β-D-glucopyranoside] | chloroquine (CQ)-resistant P. falciparum (K1 strain) | > 80 µM |
